- measured_on: 5-hydroxytryptamine receptor 1A (Rattus norvegicus, UniProt P19327)
- Sequence (P19327 whole entry): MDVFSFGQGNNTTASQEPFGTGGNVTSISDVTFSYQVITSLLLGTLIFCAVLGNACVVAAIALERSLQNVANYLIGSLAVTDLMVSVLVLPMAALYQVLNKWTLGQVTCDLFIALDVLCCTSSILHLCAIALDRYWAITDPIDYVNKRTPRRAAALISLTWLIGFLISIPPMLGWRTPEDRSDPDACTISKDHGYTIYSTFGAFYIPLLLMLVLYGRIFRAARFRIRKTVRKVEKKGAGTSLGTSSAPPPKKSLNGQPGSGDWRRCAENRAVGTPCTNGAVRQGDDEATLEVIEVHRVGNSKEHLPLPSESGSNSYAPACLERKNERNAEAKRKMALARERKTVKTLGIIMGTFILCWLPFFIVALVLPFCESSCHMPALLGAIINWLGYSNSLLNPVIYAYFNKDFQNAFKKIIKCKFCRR
pKi: −log10 of the molar value.
Label 0 if pKi falls below 6; label 1 in every other case.

INSERT INTO measurements (smiles_input, assigned_class) VALUES
  ('CN1CCN(c2nccc(-c3cccs3)n2)CC1', 1),
  ('CN1CCN(c2nc(-c3ccoc3)cc(-c3cccs3)n2)CC1', 0);

q: Determine whether this compound has pKi no lower than 6: CN1CCN(c2nccc(-c3ccccc3)n2)CC1
a: 1

----------
- measured_on: 5-hydroxytryptamine receptor 2A (Rattus norvegicus, UniProt P14842)
- Sequence (P14842 whole entry): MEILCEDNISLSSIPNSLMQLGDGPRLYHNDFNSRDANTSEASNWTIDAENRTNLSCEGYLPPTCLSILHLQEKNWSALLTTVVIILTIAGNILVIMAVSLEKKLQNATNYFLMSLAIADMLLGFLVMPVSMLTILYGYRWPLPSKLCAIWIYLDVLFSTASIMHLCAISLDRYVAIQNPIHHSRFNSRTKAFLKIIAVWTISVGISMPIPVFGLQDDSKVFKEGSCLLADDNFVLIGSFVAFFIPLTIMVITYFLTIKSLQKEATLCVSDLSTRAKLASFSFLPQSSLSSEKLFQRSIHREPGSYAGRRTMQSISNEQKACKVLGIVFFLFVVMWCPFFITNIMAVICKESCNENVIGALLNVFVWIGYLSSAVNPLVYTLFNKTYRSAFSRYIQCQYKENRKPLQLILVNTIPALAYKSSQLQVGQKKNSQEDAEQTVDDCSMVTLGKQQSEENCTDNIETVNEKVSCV
observed_property: Ki (nM)
Give bare numbers, in nM.

Observe how each entry below is paired with its result.
INSERT INTO assay_data (smiles_input, measured_on, observed_property, unit_text, test_value) VALUES
  ('CN1CCN(c2nc(-c3ccoc3)cc(-c3cccs3)n2)CC1', '5-hydroxytryptamine receptor 2A (Rattus norvegicus, UniProt P14842)', 'Ki', 'nM', 10),
  ('CN1CCN(c2nccc(-c3ccoc3)n2)CC1', '5-hydroxytryptamine receptor 2A (Rattus norvegicus, UniProt P14842)', 'Ki', 'nM', 10),
  ('CN1CCN(c2nccc(-c3ccco3)n2)CC1', '5-hydroxytryptamine receptor 2A (Rattus norvegicus, UniProt P14842)', 'Ki', 'nM', 745),
  ('CN1CCN(c2nccc(-c3cccs3)n2)CC1', '5-hydroxytryptamine receptor 2A (Rattus norvegicus, UniProt P14842)', 'Ki', 'nM', 208);

Could you now consider this next compound?
q: Enter recorded Ki with 5-hydroxytryptamine receptor 2A (Rattus norvegicus, UniProt P14842) for Cc1cc(-c2ccoc2)nc(N2CCN(C)CC2)n1 here.
a: 50
